# Tested on: Fibroblast
# test-details: Incucyte cell viability with human fibroblast; note: unitless GR value; below 1 slowed growth and below 0 cell loss
# Assay type: toxicity, cell-based
# condition: 0 h, 10 µM, compound concentration 10 uM, replicate number 1, timepoint 0 hours
quantity-kind: Growth Rate

Recorded Growth Rate, per entry:
>>> endpoint_value("Cc1cc(C)cc([C@@H]2c3cc(C)ccc3NC(=O)CN2C(=O)c2ccc(Br)s2)c1")
0.17
>>> endpoint_value("Cc1c(Cc2ccc3ccccc3n2)c2cc(F)ccc2n1CC(=O)O [TIMAPIPRANT]")
0.53
>>> endpoint_value("Cl.O=C(O)c1cc(-c2ccc(C3CCNCC3)cc2)c2ccc(-c3ccc(C(F)(F)F)cc3)cc2c1")
-0.16
>>> endpoint_value("Cc1noc(-c2ccc(-c3ccc(CC(=O)O)cc3)cc2)c1NC(=O)O[C@H](C)c1ccccc1Cl")
-0.69
>>> endpoint_value("O=C(O)COc1cccc(-c2ocnc2-c2nc(-c3ccccc3)c(-c3ccccc3)o2)c1")
0.04
>>> endpoint_value("O=C(NCc1ccc(F)cc1)N1CCN2C(=O)OC(c3ccccc3)(c3ccccc3)C2C1 (stereo not drawn)")
-0.48
>>> endpoint_value("C[C@@H](c1ccc(F)cc1)n1nnc2cnc3ccc(-c4ccc5ocnc5c4)cc3c21")
0.92

From here, focus on the item given below.
Known value: Fibroblast Growth Rate of the compound CCOc1ccc(Cc2nc3cc(C(=O)N(CC)CC)ccc3n2CC2CCCCC2)cc1 equals 0.96

###

# System: HEK-293T
# test-details: Incucyte cell viability with HEK293T; note: unitless GR value; below 1 slowed growth and below 0 cell loss
# Format: toxicity, cell-based
# condition: human, 6 h, 10 µM, compound concentration 10 uM, replicate number 2, timepoint 6 hours
Think of 0.5 as a floor: if Growth Rate stands on it or above, it is Y; beneath it, N.

Below are worked cases with known answers.
>>> assigned_category("Cc1cc(CN)cc(C)c1-c1ncn(C)c1-c1ccnc2cc(F)ccc12")
"Y"
>>> assigned_category("O=C1NC(=Nc2c(Cl)cccc2Cl)S/C1=C\\c1ccc2nccnc2c1")
"N"
>>> assigned_category("CCOc1nc2cccc(C(=O)O)c2n1Cc1ccc(-c2ccccc2-c2nnn[nH]2)cc1")
"Y"
>>> assigned_category("CC(C)Oc1ccc(F)c(-c2cnc(N)c(C(=O)Nc3cnccc3N3CCC[C@@H](C(=O)O)C3)n2)c1")
"N"

Exam item: decide whether the reported Growth Rate for O=C1c2c(Br)c(Br)c(Br)c(Br)c2C(=O)N1c1ncc[nH]1 is at least 0.5.
N

Exam item: decide whether the reported Growth Rate for CCOc1ccc(Cc2nc3cc(C(=O)N(CC)CC)ccc3n2CC2CCCCC2)cc1 is at least 0.5.
Y

Exam item: decide whether the reported Growth Rate for COc1ccc2[nH]c(I)c(CCNC(C)=O)c2c1 [IODOMELATONIN] is at least 0.5.
Y

###

Give measured Growth Rate for each item. Keep answers brief.
# Tested on: Fibroblast
# test-details: Incucyte cell viability with human fibroblast; note: unitless GR value; below 1 slowed growth and below 0 cell loss
# Format: toxicity, cell-based
# condition: 6 h, 10 µM, compound concentration 10 uM, replicate number 2, timepoint 6 hours
Answers are plain numbers.

>>> endpoint_value("COC(c1ccccc1)(c1ccccc1)[C@H](Oc1nc(C)cc(C)n1)C(=O)O")
0.53
>>> endpoint_value("CCCCCCCCCCCCC/C=C/[C@@H](O)[C@@H](N)COP(=O)(O)O")
-0.13
>>> endpoint_value("CC(C)c1cc(Oc2c(Cl)cc(-n3nc(C#N)c(=O)[nH]c3=O)cc2Cl)n[nH]c1=O")
0.58
>>> endpoint_value("CC(=O)c1cc(-c2ccccc2OCC2CC2)c2ncccn12")
0.72
>>> endpoint_value("CO/C1=C/C(C)=C\\[C@@H](C)[C@@H](O)[C@@H](C)C/C(C)=C\\C=C/[C@H](OC)C([C@@H](C)[C@@H](O)[C@H](C)[C@@]2(O)C[C@@H](O)[C@H](C)[C@@H](C(C)C)O2)OC1=O (some centres undefined)")
-0.59

Lab note: each molecule below needs its Growth Rate filled in.
1. COc1ccc(S(=O)(=O)N2C(=O)[C@@](c3ccccc3OC)(N3C[C@H](O)C[C@H]3C(=O)N(C)C)c3cc(Cl)ccc32)c(OC)c1
2. Cc1nc2ccc(Oc3ccc(F)cc3)cc2c(=O)n1C[C@H]1CCCN(C(C)C)C1.Cl

1: -0.04; 2: -0.65

Lab note: each molecule below needs its Growth Rate filled in.
1. Cc1nc(C#Cc2cccnc2)cs1.Cl
2. Cc1cc(Nc2ncc(Cl)c(Nc3ccccc3S(=O)(=O)C(C)C)n2)c(OC(C)C)cc1C1CCNCC1
3. N#Cc1c(N)nc(SCc2csc(-c3ccc(Cl)cc3)n2)c(C#N)c1-c1ccc(OCCO)cc1
4. c1ccc(NCc2ccc(CNc3ccccn3)cc2)nc1
5. CCC(=O)NCC[C@@H]1CCc2ccc3c(c21)CCO3
6. O=C(CCCc1ccccc1)Nc1nc2ccccc2c(=O)s1
7. O=c1ccn([C@@H]2O[C@H](COP(=O)([O-])OP(=O)([O-])OP(=O)([O-])O)[C@@H](O)[C@H]2O)c(=O)[nH]1.[Na+].[Na+].[Na+]

1: 0.58; 2: -0.97; 3: 0.85; 4: 1; 5: 0.51; 6: -0.65; 7: 0.66
